targetOrTestSystem: human oxytocin receptor (Homo sapiens)
Construct: host or cells: CHO cells, stably transfected (pcDNA3.1 vector); membranes
Sequence (P30559 whole entry): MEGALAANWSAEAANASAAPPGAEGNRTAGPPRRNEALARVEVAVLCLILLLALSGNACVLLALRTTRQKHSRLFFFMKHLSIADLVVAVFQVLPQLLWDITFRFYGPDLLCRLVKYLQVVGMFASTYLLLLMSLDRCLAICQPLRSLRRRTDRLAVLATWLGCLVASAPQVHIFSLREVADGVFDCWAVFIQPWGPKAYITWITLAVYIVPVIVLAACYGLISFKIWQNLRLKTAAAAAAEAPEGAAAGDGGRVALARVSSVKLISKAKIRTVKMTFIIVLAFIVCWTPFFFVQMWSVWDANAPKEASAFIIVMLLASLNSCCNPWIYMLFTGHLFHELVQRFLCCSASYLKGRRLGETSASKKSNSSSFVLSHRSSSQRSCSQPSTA
testMethodNotes: Oxytocin binding in CHO cell membranes expressing human oxytocin receptors ([3H]oxytocin radioligand)
testParameters: 100 nM, value without parentheses, read-out: OT % inhibition @ 100 nM
valueType: inhibition at 0.1 µM (%)

1) CCOC(=O)[C@H](Cc1ccc(O)cc1)NC(=O)c1ccc2n1Cc1ccccc1N(C(=O)c1ccc(C3=CCCCC3)c(C)c1)C2 : 23

1 = Cc1cc(C(=O)N2Cc3ccc(C(=O)N[C@@H](CO)C(=O)O)n3Cc3ccccc32)ccc1C1=CCCCC1
2 = Cc1cc(C(=O)N2Cc3ccc(C(=O)O)n3Cc3ccccc32)ccc1C1=CCCc2ccccc21 [Example 15B]
Which numeric inhibition at 0.1 µM is bigger, that of 1 or that of 2 ? When you have decided, please share the label of that item. 1
